Target: Acyl-protein thioesterase 2 (Homo sapiens)
Experiment: LYPLA1 inhibitor selectivity over serine hydrolases, late-stage follow-up, selectivity assay for LYPLA1 inhibitor project, cell lysate, competitive ABPP, HEK293T proteome, set 2 (AID 652018);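 also: 0% = DMSO-only band intensity and 100% = blank gel background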
Details: competitive ABPP FP-PEG-Rh gel, LYPLA2, at 10 µM, stronger effect = higher value
ATTRIBUTE MEASURED: inhibition (%)

O=C(N1CCN(c2ccc(Br)cc2)CC1)n1ncc(C(O)(c2ccccc2)c2ccccc2)n1    80
O=C(CN1CCN(C(=O)n2ncc(C(O)(c3ccccc3)c3ccccc3)n2)CC1)Nc1cc(C(F)(F)F)ccc1Cl    100
COc1ccc(N2CCN(C(=O)n3nccn3)CC2)cc1    100
O=C(CN1CCN(C(=O)n2cc(C(O)(c3ccccc3)c3ccccc3)nn2)CC1)Nc1cc(C(F)(F)F)ccc1Cl    100

* * *

Target: UniProtKB O75608
Sequence (O75608 whole entry, looked up): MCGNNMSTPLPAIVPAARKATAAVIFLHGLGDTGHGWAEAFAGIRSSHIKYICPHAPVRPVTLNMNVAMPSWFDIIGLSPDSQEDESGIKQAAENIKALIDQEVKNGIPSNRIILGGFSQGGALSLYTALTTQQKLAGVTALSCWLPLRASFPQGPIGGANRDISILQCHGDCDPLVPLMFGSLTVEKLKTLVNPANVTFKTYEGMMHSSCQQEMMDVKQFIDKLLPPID
Experiment: LYPLA1 inhibitor selectivity over serine hydrolases, late-stage follow-up, selectivity assay for LYPLA1 inhibitor project, cell lysate, competitive ABPP, HEK293T proteome, set 2 (AID 652018);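 also: 0% = DMSO-only band intensity and 100% = blank gel background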
Conditions: competitive ABPP FP-PEG-Rh gel, LYPLA1, inhibition, at 0.3 µM, stronger effect = higher value
ATTRIBUTE MEASURED: inhibition (%)

Some molecules with recorded inhibition:
COc1ccc(N2CCN(C(=O)n3cc(-c4ccc(OC(F)(F)F)cc4)nn3)CC2)cc1    20
O=C(CN1CCN(C(=O)n2ncc(-c3ccc(-c4ccccc4)cc3)n2)CC1)Nc1cc(C(F)(F)F)ccc1Cl    30

P = COc1ccc(N2CCN(C(=O)n3nc(Br)nc3Br)CC2)cc1
Q = O=C(N1CCN(c2ccc(Br)cc2)CC1)n1ncc(C(O)(c2ccccc2)c2ccccc2)n1
Returns the identifier with the smallest measured inhibition among P and Q . Indicate your choice by writing its label. P
(P: 20%, Q: 40%)

a = COc1ccc(N2CCN(C(=O)n3ncc(-c4ccccc4)n3)CC2)cc1
b = O=C(CN1CCN(C(=O)n2nccn2)CC1)Nc1cc(C(F)(F)F)ccc1Cl
c = COc1ccc(N2CCN(C(=O)n3ncc(C(O)(c4ccccc4)c4ccccc4)n3)CC2)cc1
d = O=C(CN1CCN(C(=O)n2nc(Br)nc2Br)CC1)Nc1cc(C(F)(F)F)ccc1Cl
e = COc1ccc(N2CCN(C(=O)n3ncc(-c4ccc(OC(F)(F)F)cc4)n3)CC2)cc1
Order these by inhibition, descending, and give the full ranking. List each label, following the requested order. c, d, b, a, e
(c: 95%, d: 45%, b: 30%, a: 20%, e: 10%)

1 = COc1ccc(N2CCN(C(=O)n3ccnn3)CC2)cc1
2 = O=C(CN1CCN(C(=O)n2ncc(-c3ccc(OC(F)(F)F)cc3)n2)CC1)Nc1cc(C(F)(F)F)ccc1Cl
3 = O=C(CN1CCN(C(=O)n2ncc(C(O)(c3ccccc3)c3ccccc3)n2)CC1)Nc1cc(C(F)(F)F)ccc1Cl
Rank the 3 molecules: largest inhibition first, smallest last. Order the labels as requested and list them. 3, 2, 1

* * *

Molecular target: UniProtKB O95372
Assay: LYPLA1 inhibitor selectivity over serine hydrolases, late-stage follow-up, selectivity assay for LYPLA1 inhibitor project, cell lysate, competitive ABPP, HEK293T proteome, set 2 (AID 652018);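 also: 0% = DMSO-only band intensity and 100% = blank gel background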
Conditions: competitive ABPP FP-PEG-Rh gel, LYPLA2, inhibition, at 1 µM, stronger effect = higher value
ATTRIBUTE MEASURED: inhibition (%)

Some solved entries appear below for comparison.
O=C(CN1CCN(C(=O)n2ncc(-c3ccc(Br)cc3)n2)CC1)Nc1cc(C(F)(F)F)ccc1Cl    40
COc1ccc(N2CCN(C(=O)n3ccnn3)CC2)cc1    30
O=C(N1CCN(c2ccc(Br)cc2)CC1)n1ncc(C(O)(c2ccccc2)c2ccccc2)n1    30
O=C(CN1CCN(C(=O)n2nccn2)CC1)Nc1cc(C(F)(F)F)ccc1Cl    40
COc1ccc(N2CCN(C(=O)n3nc(Br)nc3Br)CC2)cc1    30
COc1ccc(N2CCN(C(=O)n3cc(-c4ccc(OC(F)(F)F)cc4)nn3)CC2)cc1    10
O=C(CN1CCN(C(=O)n2cc(-c3ccc(-c4ccccc4)cc3)nn2)CC1)Nc1cc(C(F)(F)F)ccc1Cl    30
COc1ccc(N2CCN(C(=O)n3ncc(C(O)(c4ccccc4)c4ccccc4)n3)CC2)cc1    100
O=C(CN1CCN(C(=O)n2cncn2)CC1)Nc1cc(C(F)(F)F)ccc1Cl    30
COc1ccc(N2CCN(C(=O)n3cc(C(O)(c4ccccc4)c4ccccc4)nn3)CC2)cc1    95

1 = O=C(CN1CCN(C(=O)n2nc(Br)nc2Br)CC1)Nc1cc(C(F)(F)F)ccc1Cl
2 = COc1ccc(N2CCN(C(=O)n3ncc(-c4ccc(OC(F)(F)F)cc4)n3)CC2)cc1
Quick check, higher inhibition between 1 and 2 ? // return label of chosen record 1
(1: 75%, 2: 10%)

* * *

Target: UniProt O75608
Assay: LYPLA1 inhibitor selectivity over serine hydrolases, late-stage follow-up, selectivity assay for LYPLA1 inhibitor project, cell lysate, competitive ABPP, HEK293T proteome, set 2 (AID 652018);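 also: 0% = DMSO-only band intensity and 100% = blank gel background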
Details: competitive ABPP FP-PEG-Rh gel, LYPLA1, at 10 µM, stronger effect = higher value
ATTRIBUTE MEASURED: inhibition (%)

COc1ccc(N2CCN(C(=O)n3ccnn3)CC2)cc1    90
O=C(N1CCN(c2ccc(Cl)c(Cl)c2)CC1)n1ncc(C(O)(c2ccccc2)c2ccccc2)n1    80
COc1ccc(N2CCN(C(=O)n3cc(C(O)(c4ccccc4)c4ccccc4)nn3)CC2)cc1    95
COc1ccc(N2CCN(C(=O)n3nccn3)CC2)cc1    95
COc1ccc(N2CCN(C(=O)n3cncn3)CC2)cc1    95

* * *

Molecular target: UniProtKB O75608
Test: LYPLA1 inhibitor selectivity over serine hydrolases, late-stage follow-up, selectivity assay for LYPLA1 inhibitor project, cell lysate, competitive ABPP, HEK293T proteome, set 2 (AID 652018);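 also: 0% = DMSO-only band intensity and 100% = blank gel background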
Conditions: competitive ABPP FP-PEG-Rh gel, LYPLA1, inhibition, at 1 µM, stronger effect = higher value
ATTRIBUTE MEASURED: inhibition (%)

Examples from the recorded data:
O=C(N1CCN(c2ccc(Cl)c(Cl)c2)CC1)n1ncc(C(O)(c2ccccc2)c2ccccc2)n1    40
COc1ccc(N2CCN(C(=O)n3ncc(C(O)(c4ccccc4)c4ccccc4)n3)CC2)cc1    95

a = O=C(CN1CCN(C(=O)n2ncc(C(O)(c3ccccc3)c3ccccc3)n2)CC1)Nc1cc(C(F)(F)F)ccc1Cl
b = O=C(CN1CCN(C(=O)n2nccn2)CC1)Nc1cc(C(F)(F)F)ccc1Cl
Given a and b , report the one with the higher recorded inhibition. Return value: the label identifying the chosen record. a
(a: 95%, b: 60%)

* * *

Biological target: Acyl-protein thioesterase 1 (Homo sapiens)
Test: LYPLA1 inhibitor selectivity over serine hydrolases, late-stage follow-up, selectivity assay for LYPLA1 inhibitor project, cell lysate, competitive ABPP, HEK293T proteome, set 2 (AID 652018);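 also: 0% = DMSO-only band intensity and 100% = blank gel background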
Settings: competitive ABPP FP-PEG-Rh gel, LYPLA1, at 10 µM, stronger effect = higher value
ATTRIBUTE MEASURED: inhibition (%)

# count of solved cases: 4
O=C(CN1CCN(C(=O)n2cc(-c3ccc(OC(F)(F)F)cc3)nn2)CC1)Nc1cc(C(F)(F)F)ccc1Cl    60
O=C(CN1CCN(C(=O)n2nc(Br)nc2Br)CC1)Nc1cc(C(F)(F)F)ccc1Cl    95
COc1ccc(N2CCN(C(=O)n3cc(-c4ccc(OC(F)(F)F)cc4)nn3)CC2)cc1    80
O=C(CN1CCN(C(=O)n2nccn2)CC1)Nc1cc(C(F)(F)F)ccc1Cl    95

I = O=C(N1CCN(c2ccc(Br)cc2)CC1)n1ncc(C(O)(c2ccccc2)c2ccccc2)n1
II = O=C(CN1CCN(C(=O)n2cc(-c3ccc(-c4ccccc4)cc3)nn2)CC1)Nc1cc(C(F)(F)F)ccc1Cl
# argmax over inhibition for candidates I and II Use the label to indicate which entry you chose. I

I = O=C(CN1CCN(C(=O)n2ncc(-c3ccc(OC(F)(F)F)cc3)n2)CC1)Nc1cc(C(F)(F)F)ccc1Cl
II = COc1ccc(N2CCN(C(=O)n3ncc(-c4ccccc4)n3)CC2)cc1
API: POST /compare with I and II ; response names the item with higher inhibition. Identify your pick by its label. I

I = O=C(CN1CCN(C(=O)n2cc(C(O)(c3ccccc3)c3ccccc3)nn2)CC1)Nc1cc(C(F)(F)F)ccc1Cl
II = COc1ccc(N2CCN(C(=O)n3ncc(-c4ccc(OC(F)(F)F)cc4)n3)CC2)cc1
III = O=C(CN1CCN(C(=O)n2cncn2)CC1)Nc1cc(C(F)(F)F)ccc1Cl
Hello, I need these entries ordered by inhibition, highest reading first. Thanks! Answer by listing the labels in the order asked for. I, III, II

* * *

Target: Acyl-protein thioesterase 2 (Homo sapiens) (UniProt O95372)
Sequence (O95372 whole entry, looked up): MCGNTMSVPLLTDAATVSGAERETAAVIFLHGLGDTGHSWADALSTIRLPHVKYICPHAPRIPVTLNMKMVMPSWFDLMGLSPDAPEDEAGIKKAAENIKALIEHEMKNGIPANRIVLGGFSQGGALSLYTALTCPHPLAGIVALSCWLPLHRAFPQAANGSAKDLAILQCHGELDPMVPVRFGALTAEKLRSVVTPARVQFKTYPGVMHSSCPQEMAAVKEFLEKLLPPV
Experiment: LYPLA1 inhibitor selectivity over serine hydrolases, late-stage follow-up, selectivity assay for LYPLA1 inhibitor project, cell lysate, competitive ABPP, HEK293T proteome, set 2 (AID 652018);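 also: 0% = DMSO-only band intensity and 100% = blank gel background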
Settings: competitive ABPP FP-PEG-Rh gel, LYPLA2, inhibition, at 0.3 µM, stronger effect = higher value
ATTRIBUTE MEASURED: inhibition (%)

Some entries whose results are on file:
COc1ccc(N2CCN(C(=O)n3ccnn3)CC2)cc1    10
COc1ccc(N2CCN(C(=O)n3ncc(-c4ccccc4)n3)CC2)cc1    10
COc1ccc(N2CCN(C(=O)n3nc(Br)c(Br)n3)CC2)cc1    50
O=C(CN1CCN(C(=O)n2cc(-c3ccc(-c4ccccc4)cc3)nn2)CC1)Nc1cc(C(F)(F)F)ccc1Cl    30
O=C(CN1CCN(C(=O)n2ncc(-c3ccc(OC(F)(F)F)cc3)n2)CC1)Nc1cc(C(F)(F)F)ccc1Cl    30
O=C(CN1CCN(C(=O)n2nccn2)CC1)Nc1cc(C(F)(F)F)ccc1Cl    30
COc1ccc(N2CCN(C(=O)n3ncc(C(O)(c4ccccc4)c4ccccc4)n3)CC2)cc1    75
COc1ccc(N2CCN(C(=O)n3ncc(-c4ccc(OC(F)(F)F)cc4)n3)CC2)cc1    10

A = O=C(N1CCN(c2ccc(Cl)c(Cl)c2)CC1)n1ncc(C(O)(c2ccccc2)c2ccccc2)n1
B = O=C(CN1CCN(C(=O)n2ncc(C(O)(c3ccccc3)c3ccccc3)n2)CC1)Nc1cc(C(F)(F)F)ccc1Cl
So which one has the bigger inhibition here, A or B ? Record your answer as the label of the chosen record. B
